These measurements were taken from paper PMC9482650.

- subject of test: DLG2_3, Q15700
- assay remarks: holdup assay
- Set-up: key: below the threshold = too weak to quantify, mostly under pKd 3.1 to 4
- measurement parameters: plain residues with an end cap or a label only (N-terminal biotin on a linker: ado-ado)
quantity name: pKd

>>> assay_result("LKVPPEERLI [CRB2, Q5IJ48]")
"below the threshold"
>>> assay_result("SKSNFGSEPL [KIF17, Q9P2E2]")
"below the threshold"
>>> assay_result("QMNQTLPVQV [EPHB3, P54753]")
"below the threshold"
>>> assay_result("LRSPRTPSEV [OR10G3, Q8NGC4]")
"below the threshold"
>>> assay_result("TPPAAKKSRI [BAZ1A, Q9NRL2]")
"below the threshold"
>>> assay_result("MLSKQSESAI [FLVCR1, Q9Y5Y0]")
"below the threshold"
>>> assay_result("EVNETDDTKM [KCNJ1, P48048]")
"below the threshold"
>>> assay_result("TKGPRGPTRV [SAPCD1, Q5SSQ6]")
4.55
>>> assay_result("DDEDRLVIEI [ZNF831, Q5JPB2]")
3.65
>>> assay_result("RRRESYSTTV [EVI5, O60447]")
4.52
>>> assay_result("LGRSTPQSEV [DGKH, Q86XP1]")
"below the threshold"
>>> assay_result("LPHGHSTTRV [NLGN4X, Q8N0W4]")
4.42
>>> assay_result("PPYRHRNTVV [ERBB4, Q15303]")
4.35
>>> assay_result("IPLDGETEEL [MYOZ1, Q9NP98]")
"below the threshold"
>>> assay_result("DTTVPESEDL [MYOZ2, Q9NPC6]")
"below the threshold"
>>> assay_result("PEYLGLDVPV [ERBB2, P04626]")
"below the threshold"
>>> assay_result("EKKTLIGIKL [GOT1L1, Q8NHS2]")
"below the threshold"
>>> assay_result("EVEEFPETSV [TRPV3, Q8NET8]")
4.41
>>> assay_result("DDENIRTSDV [PLEKHA2, Q9HB19]")
"below the threshold"
>>> assay_result("IKAIVDLTGL [TRAF2, Q12933]")
"below the threshold"
>>> assay_result("KSGKQTMLVV [TRIM29, Q14134;Q14134-2]")
"below the threshold"
>>> assay_result("KKAPTNEFYA [SDC4, P31431]")
3.62
>>> assay_result("QPCFNKLFPL [LPXN, O60711]")
"below the threshold"
>>> assay_result("YNNCLEILRV [DCAF7, P61962]")
"below the threshold"
>>> assay_result("VRNLPESEEL [MYOZ3, Q8TDC0]")
"below the threshold"
>>> assay_result("LPAHHNATRL [SLC34A1, Q06495;Q06495-1]")
"below the threshold"
